Source listed as ChEMBL document CHEMBL3739261.

- METHOD SUMMARY: Half life in Sprague-Dawley rat blood at 10 mg/kg, iv by HPLC analysis
- Format: ADME, organism-based
Listed compounds paired with reported half-life
Express it in h; write the number only.

Ask: What value of half-life has been recorded for this entry: "O=C(NC[C@H]1CN(c2ccc(-n3cc(-c4ccccn4)cn3)c(F)c2)C(=O)O1)C(F)F"
Reply: 5.4

Kindly review the next compound as well.
Ask: What value of half-life has been recorded for this entry: "CC(=O)NC[C@H]1CN(c2ccc(-n3cc(-c4ccccn4)cn3)c(F)c2)C(=O)O1"
Reply: 0.88

###

Listed molecules paired with reported solubility at 24 h
- METHOD SUMMARY: Solubility of compound in distilled water after 24 hrs by HPLC analysis
- Format: physicochemical

Ask: What value of solubility at 24 h has been recorded for this entry: "CONC(=O)[C@H]1CN(c2ccc(-n3cc(-c4ccccn4)cn3)c(F)c2)C(=O)O1"
Reply: 78.1 µM

Ask: What value of solubility at 24 h has been recorded for this entry: "CN1CCN(C[C@H]2CN(c3ccc(-n4cc(-c5ccccn5)cn4)c(F)c3)C(=O)O2)CC1"
Reply: 1690 µM

Continuing:
Ask: What value of solubility at 24 h has been recorded for this entry: "O=C1CCC(=O)N1C[C@H]1CN(c2ccc(-n3cc(-c4ccccn4)cn3)c(F)c2)C(=O)O1"
Reply: 45.3 µM

Ask: What value of solubility at 24 h has been recorded for this entry: "O=C(NC[C@H]1CN(c2ccc(-n3cc(-c4ccccn4)cn3)c(F)c2)C(=O)O1)C(F)F"
Reply: 29.9 µM

Ask: What value of solubility at 24 h has been recorded for this entry: "O=C1O[C@@H](CN2CCCCC2)CN1c1ccc(-n2cc(-c3ccccn3)cn2)c(F)c1"
Reply: 219 µM

Ask: What value of solubility at 24 h has been recorded for this entry: "O=C1O[C@@H](CO)CN1c1ccc(-n2cc(-c3ccccn3)cn2)c(F)c1"
Reply: 56.4 µM

Ask: What value of solubility at 24 h has been recorded for this entry: "CC(=O)NC[C@H]1CN(c2ccc(-n3cc(-c4ccccn4)cn3)c(F)c2)C(=O)O1"
Reply: 134 µM

Ask: What value of solubility at 24 h has been recorded for this entry: "O=C(OC[C@H]1CN(c2ccc(-n3cc(-c4ccccn4)cn3)c(F)c2)C(=O)O1)c1ccccc1"
Reply: ≤ 65.4 µM

Ask: What value of solubility at 24 h has been recorded for this entry: "O=C1O[C@@H](Cn2ccnn2)CN1c1ccc(-n2cc(-c3ccccn3)cn2)c(F)c1"
Reply: 247 µM

Ask: What value of solubility at 24 h has been recorded for this entry: "O=C1O[C@@H](CN2CCC(O)CC2)CN1c1ccc(-n2cc(-c3ccccn3)cn2)c(F)c1"
Reply: 45.9 µM

Ask: What value of solubility at 24 h has been recorded for this entry: "O=C1CSC(=O)N1C[C@H]1CN(c2ccc(-n3cc(-c4ccccn4)cn3)c(F)c2)C(=O)O1"
Reply: 26.9 µM

Ask: What value of solubility at 24 h has been recorded for this entry: "O=CNC[C@H]1CN(c2ccc(-n3cc(-c4ccccn4)cn3)c(F)c2)C(=O)O1"
Reply: 217 µM

Ask: What value of solubility at 24 h has been recorded for this entry: "O=C1CNC(=O)N1C[C@H]1CN(c2ccc(-n3cc(-c4ccccn4)cn3)c(F)c2)C(=O)O1"
Reply: 1630 µM
